target: SMYD3 (Homo sapiens); assay: SMYD3 biochemical assay (MTase-Glo, MAP3K2 peptide substrate); details: Table 1; MAP3K2 peptide as substrate; read-out: IC50
QUANTITY_NAME: IC50 (nM)
Give bare numbers, in nM.

Would you please look over these solved cases?
CCCOC(=O)N1CCN(C(=O)c2ccc3c(Cl)cc(-c4ccccc4)nc3c2)C[C@H]1C :: 59.5
CCCOC(=O)N1CCN(C(=O)c2ccc3c(Cl)c4c(nc3c2)CC(c2ccccn2)CC4)C[C@H]1C (stereo partly shown) :: 152
CCCOC(=O)N1CCN(C(=O)c2ccc3c(Cl)c4c(nc3c2)CC(CCN)CC4)[C@@H](C)C1 (stereo partly shown) :: 92

Now for another entry.
Problem: Given CCCOC(=O)N1CCN(C(=O)c2ccc3c(Cl)c4c(nc3c2)CCC(CCN)C4)CC1 (stereo not shown) , respond with its IC50.
Solution: 46.1

###

Please respond with reported IC50 for every item in the list.
Molecular target: SMYD3 (Homo sapiens, UniProt Q9H7B4)
Assay: SMYD3 biochemical assay (MTase-Glo, MAP3K2 peptide substrate)
Details: Table 2; read-out: Biochemical assay IC50
Protocol: A SMYD3 enzymatic assay was developed using Promega's Methyltransferase-Glo™ reagents. In the assay, SMYD3 catalyzes the methylation of the MAP3K2 peptide substrate by transferring a methyl group from SAM to MAP3K2 peptide and further converts the SAM to SAH. The SMYD3 methyltransferase activity is measured based on the amount of SAH produced from the reaction through the use of coupling enzymes that convert the SAH to ATP. […]
Numbers only, in nM.

CCCOC(=O)N1CCN(C(=O)c2ccc3c(Cl)cc(-c4ccccc4)nc3c2)C[C@H]1C [B019] :: 59.5
CCCOC(=O)N1CCN(C(=O)c2ccc3c(Cl)c4c(nc3c2)CCC(CCN)C4)CC1 (stereo not shown) [A066] :: 46.1
CCCOC(=O)N1CCN(C(=O)c2ccc3c(Cl)c4c(nc3c2)CC(CCN)CC4)[C@@H](C)C1 (stereo partly shown) [A088] :: 92

We now examine a further compound.
Problem: Consider the compound CCCOC(=O)N1CCN(C(=O)c2ccc3c(Cl)c4c(nc3c2)CC(c2ccccn2)CC4)C[C@H]1C (stereo partly shown) [A074] . State its measured IC50.
Solution: 152

###

Target: SMYD3 (Homo sapiens)
Sequence (Q9H7B4 1-428): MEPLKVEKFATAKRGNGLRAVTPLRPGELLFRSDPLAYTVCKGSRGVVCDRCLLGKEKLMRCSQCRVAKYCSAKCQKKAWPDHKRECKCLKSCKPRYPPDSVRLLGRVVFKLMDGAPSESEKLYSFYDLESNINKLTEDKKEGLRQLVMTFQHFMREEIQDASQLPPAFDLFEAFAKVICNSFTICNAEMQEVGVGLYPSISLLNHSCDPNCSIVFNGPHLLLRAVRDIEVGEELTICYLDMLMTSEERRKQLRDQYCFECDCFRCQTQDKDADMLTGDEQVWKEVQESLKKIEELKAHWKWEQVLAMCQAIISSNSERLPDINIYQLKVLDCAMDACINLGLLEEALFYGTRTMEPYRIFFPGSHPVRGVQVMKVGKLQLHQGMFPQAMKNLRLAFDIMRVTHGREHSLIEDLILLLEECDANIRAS
Assay: SMYD3 biochemical assay (MTase-Glo, MAP3K2 peptide substrate)
Settings: Table 3; MTase assay, MAP3K2 peptide substrate; read-out: IC50
For each record, write down the corresponding pIC50.
Answers are plain numbers, as −log10 of the molar value.

CCCOC(=O)N1CCN(C(=O)c2ccc3c(Cl)cc(-c4ccc(C)nc4)nc3c2)C[C@H]1C [B177] :: 6.44
CCCOC(=O)N1CCN(C(=O)c2ccc3c(Cl)cc(-c4cccs4)nc3c2)CC1 [B084] :: 6.27
CCCOC(=O)N1CCN(C(=O)c2ccc3c(Cl)c4c(nc3c2)C(c2ccccc2)CCC4)CC1 (stereo not shown) [A119] :: 5.72

Problem: Entry CCCOC(=O)N1CCN(C(=O)c2ccc3c(Cl)c4c(nc3c2)CCC(CC(=O)OC)C4)CC1 (stereo not shown) [A034] needs its pIC50 filled in; supply it.
Solution: 6.42

###

target: SMYD3 (Homo sapiens, UniProt Q9H7B4); test: SMYD3 biochemical assay (MTase-Glo, MAP3K2 peptide substrate); settings: Table 3; MTase assay, MAP3K2 peptide substrate; read-out: IC50
Lab note - cut at 900 nM for IC50: Satisfied if strictly below, Not satisfied if not.

CC(C)COC(=O)N1CCN(C(=O)c2ccc3c(Cl)cc(-c4ccn(C)c4)nc3c2)CC1 :: Satisfied

Problem: In plain terms, does "CCCOC(=O)N1CCN(C(=O)c2ccc3c(Cl)c(C)c(-c4ccc(C(F)(F)F)cc4)nc3c2)CC1" come in under 900 nM for IC50?
Solution: Not satisfied

Problem: Check if IC50 falls below 900 nM for "CCCOC(=O)N1CCN(C(=O)c2ccc3c(Cl)cc(-c4ccnc5[nH]ccc45)nc3c2)CC1" .
Solution: Satisfied

Problem: Please let me know if CCCOC(=O)N1CCN(C(=O)c2ccc3c(Cl)c4c(nc3c2)CC(C)CC4)CC1 (stereo not shown) shows IC50 below 900 nM.
Solution: Not satisfied

Problem: is_below(IC50, 900 nM) for "CCCOC(=O)N1CCN(C(=O)c2ccc3c(Cl)cc(-c4cc(F)c(O)c(F)c4)nc3c2)C[C@H]1C" ?
Solution: Satisfied

Problem: Is the reported IC50 for CCCOC(=O)N1CCN(C(=O)c2ccc3c(Cl)c4c(nc3c2)CC(c2ncccc2F)CC4)C[C@H]1C (stereo partly shown) strictly below 900 nM?
Solution: Satisfied

Problem: Please state whether IC50 is below 900 nM for CCCOC(=O)N1CCN(C(=O)c2ccc3c(Cl)c4c(nc3c2)CCCC4)CC1C(N)=O (stereo not shown)
Solution: Not satisfied

###

assay: Human liver microsomes stability test; type: in vitro ADME; conditions: read-out: half-life, t1/2
QUANTITY_NAME: half-life
Your reply should be a number followed by the unit it is expressed in.

Problem: Give the reported value of half-life for this record: CCOC(=O)N1CCN(C(=O)c2ccc3c(Cl)c4c(nc3c2)CCCC4)CC1 [X4, reference compound]
Solution: 9 min

###

Target: SMYD3 (Homo sapiens, UniProt Q9H7B4)
Sequence (Q9H7B4 1-428): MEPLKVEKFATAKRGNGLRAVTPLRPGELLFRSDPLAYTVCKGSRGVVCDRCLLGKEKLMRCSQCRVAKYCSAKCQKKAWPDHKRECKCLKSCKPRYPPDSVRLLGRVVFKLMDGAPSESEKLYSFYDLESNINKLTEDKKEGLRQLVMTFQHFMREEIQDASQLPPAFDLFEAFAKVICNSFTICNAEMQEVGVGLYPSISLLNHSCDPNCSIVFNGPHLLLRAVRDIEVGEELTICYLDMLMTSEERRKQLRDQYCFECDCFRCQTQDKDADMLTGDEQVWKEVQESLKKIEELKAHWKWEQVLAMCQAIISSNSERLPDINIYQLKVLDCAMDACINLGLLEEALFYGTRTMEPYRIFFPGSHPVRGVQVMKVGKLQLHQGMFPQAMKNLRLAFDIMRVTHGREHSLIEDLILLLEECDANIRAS
Assay: SMYD3 biochemical assay (MTase-Glo, MAP3K2 peptide substrate)
Conditions: Table 3; MTase assay, MAP3K2 peptide substrate; read-out: IC50
Mark each entry y if its IC50 sits below 800 nM, and n for all others.

Take a look at these entries with their results.
CCCOC(=O)N1CCN(C(=O)c2ccc3c(Cl)cc(-c4cccc(C)c4)nc3c2)CC1 [B011] :: y
CCCOC(=O)N1CCN(C(=O)c2ccc3c(Cl)c4c(nc3c2)C(C)CCC4)C[C@H]1C (some centres unmarked) [A127] :: y
CCCOC(=O)N1CC2CCC1CN2C(=O)c1ccc2c(Cl)c3c(nc2c1)CCCC3 (centres unmarked) [A005] :: n
CCCOC(=O)N1C2CCCC1CN(C(=O)c1ccc3c(Cl)ccnc3c1)C2 [C007] :: y
CCCOC(=O)N1CCN(C(=O)c2ccc3c(Cl)cc(-c4cccc(N)c4)nc3c2)C[C@H]1C [B078] :: y
CCCOC(=O)N1CCN(C(=O)c2ccc3c(Cl)cc(Nc4ccc(OC)cc4)nc3c2)CC1 [B041] :: n
C#CCC1CCc2c(nc3cc(C(=O)N4CCN(C(=O)OCCC)C[C@@H]4C)ccc3c2Cl)C1 (some centres unmarked) [A137] :: y

Problem: # TODO verify IC50 < 800 nM strictly for this compound: CCCOC(=O)N1CCN(C(=O)c2ccc3c(Cl)c4c(nc3c2)CCCC4)CC1COC(C)=O (centres unmarked) [A052]
Solution: n

###

For each record, write down the corresponding IC50.
Biological target: SMYD3 (Homo sapiens, UniProt Q9H7B4)
Experiment: SMYD3 biochemical assay (MTase-Glo, MAP3K2 peptide substrate)
Settings: Table 3; MTase assay, MAP3K2 peptide substrate; read-out: IC50
Method: A SMYD3 enzymatic assay was developed using Promega's Methyltransferase-Glo™ reagents. In the assay, SMYD3 catalyzes the methylation of the MAP3K2 peptide substrate by transferring a methyl group from SAM to MAP3K2 peptide and further converts the SAM to SAH. The SMYD3 methyltransferase activity is measured based on the amount of SAH produced from the reaction through the use of coupling enzymes that convert the SAH to ATP. […]
One number for each entry, in nM.

Some entries whose results are on file:
CCCOC(=O)N1CCN(C(=O)c2ccc3c(Cl)cc(-c4ccn(C)c4)nc3c2)C[C@H]1C :: 17
CCCOC(=O)N1CCN(C(=O)c2ccc3c(Cl)cc(-c4cnc5[nH]nc(C)c5c4)nc3c2)CC1 :: 2500

Count: 6. Required value per item: IC50.
1. CCCOC(=O)N1CCN(C(=O)c2ccc3c(Cl)cc(Nc4ccccc4)nc3c2)CC1
2. CCCOC(=O)N1CCN(C(=O)c2ccc3c(Cl)cc(-c4cccc(CN)c4)nc3c2)C[C@H]1C
3. CCCOC(=O)N1C2CCCC1CN(C(=O)c1ccc3c(Cl)cc(-c4ccccc4)nc3c1)C2
4. CCCOC(=O)N1CCN(C(=O)c2ccc3c(Cl)c4c(nc3c2)CCC(CC#N)C4)CC1 (stereo not drawn)
5. CCCOC(=O)N1CCN(C(=O)c2ccc3c(Cl)c4c(nc3c2)CCCC4)CC1C(=O)NC (stereo not drawn)
6. CCCOC(=O)N1CCN(C(=O)c2ccc3c(Cl)cc(-c4ccc(CO)cc4)nc3c2)CC1

Solution:
1. 3200
2. 100
3. 470
4. 280
5. 6100
6. 28
